Record form. Attribute: EC50. Fill in for each entry.
STUDY_TARGET: T1, CD47 on CCRF-CEM cells (human, UniProt Q08722 19-323)
T1 construct: Target is CD47 carried by the CD47-positive cell line CCRF-CEM; also called Cluster of Differentiation 47; integrin-associated protein
T1 sequence (Q08722 19-323): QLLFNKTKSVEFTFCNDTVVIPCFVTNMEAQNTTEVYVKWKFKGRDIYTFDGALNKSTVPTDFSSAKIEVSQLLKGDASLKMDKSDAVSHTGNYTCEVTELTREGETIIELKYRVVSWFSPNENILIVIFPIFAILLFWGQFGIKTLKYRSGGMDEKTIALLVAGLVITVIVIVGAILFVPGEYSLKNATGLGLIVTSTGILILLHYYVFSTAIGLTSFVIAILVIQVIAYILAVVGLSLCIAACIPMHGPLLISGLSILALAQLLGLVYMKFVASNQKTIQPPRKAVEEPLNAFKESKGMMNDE
TEST_DETAILS: flow cytometry on antibody-opsonized CCRF-CEM cells, anti-human Alexa 647 secondary, median fluorescence, sigmoidal fit; Donor 1
Answers are plain numbers, in µg/mL.

Illustrative cases are given below, each with its answer.
[Q] Can you share its EC50? I mean this binder: Ab480/Ab1122 (HC Ab480, LC Ab1122) anti-CD47 antibody (antibody, V domains shown, FR and CDR L2 variant of AbParental; The label order is HC/LC although the head says 'LC/HC'; r445 is used) VH: QMQLVQSGAEVKKPGSSVKVSCKASGFNIKDYYLHWVRQAPGKGLEWMGWIDPDQGDTEYAQKFQGRVTITRDRSTSTAYMELRSLRAEDTAVYYCNAAYGSSSYPMDYWGQGTLVTVSS VL: NIQMTQSPSSLSASVGDRVTITCRASQDIHRYLSWFQQKPGKVPKHLIYRYERFVDGVPSRFSGSGSGTEFTLTISSLQPEDFATYYCLQYDEFPYTFGGGTKVEIK
[A] 0.16

[Q] Can you share its EC50? I mean this binder: Ab356/Ab1129 (HC Ab356, LC Ab1129) anti-CD47 antibody (antibody, V domains shown, FR and CDR L2 variant of AbParental; The label order is HC/LC although the head says 'LC/HC'; r466 is used) VH: QMQLVQSGAEVKKPGSSVKVSCKASGFNIKDYYLHWVRQAPGKGLEWMGWIDPDQGDTEYAQKFQGRVTITRDRSTSTAYMELRSLRAEDTAVYYCNAAYGSSSYPMDYWGQGTTVTVSS VL: NIQMTQSPSSLSASVGDRVTITCRASQDIHRYLSWFQQKPGKVPKHLIYRHIRFVDGVPSRFSGSGSGTEFTLTISSLQPEDFATYYCLQYDEFPYTFGGGTKVEIK
[A] 0.16

[Q] Can you share its EC50? I mean this binder: Ab356/Ab1120 (HC Ab356, LC Ab1120) anti-CD47 antibody (antibody, V domains shown, FR and CDR L2 variant of AbParental) VH: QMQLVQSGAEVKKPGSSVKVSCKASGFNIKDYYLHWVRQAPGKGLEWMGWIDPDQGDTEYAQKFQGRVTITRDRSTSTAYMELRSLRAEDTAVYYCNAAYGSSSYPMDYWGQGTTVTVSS VL: NIQMTQSPSSLSASVGDRVTITCRASQDIHRYLSWFQQKPGKVPKHLIYRYVRFVDGVPSRFSGSGSGTEFTLTISSLQPEDFATYYCLQYDEFPYTFGGGTKVEIK
[A] 0.17

[Q] Can you share its EC50? I mean this binder: Ab1119/Ab480 (LC Ab1119, HC Ab480) anti-CD47 antibody (antibody, V domains shown, Variant of AbParental) VH: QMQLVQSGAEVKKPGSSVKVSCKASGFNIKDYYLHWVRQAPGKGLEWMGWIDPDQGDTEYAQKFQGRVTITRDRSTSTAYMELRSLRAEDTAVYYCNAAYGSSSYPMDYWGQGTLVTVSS VL: NIQMTQSPSSLSASVGDRVTITCRASQDIHRYLSWFQQKPGKVPKHLIYRANRLVSGVPSRFSGSGSGTEFTLTISSLQPEDFATYYCLQYDEFPYTFGGGTKVEIK
[A] 0.04

Your task in this section: give EC50 for each listed record.
1. Ab356/Ab1127 (HC Ab356, LC Ab1127) anti-CD47 antibody (antibody, V domains shown, FR and CDR L2 variant of AbParental; The label order is HC/LC although the head says 'LC/HC'; r460 is used) VH: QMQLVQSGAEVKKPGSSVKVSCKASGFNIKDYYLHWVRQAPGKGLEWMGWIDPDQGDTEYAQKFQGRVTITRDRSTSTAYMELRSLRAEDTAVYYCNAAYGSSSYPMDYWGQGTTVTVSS VL: NIQMTQSPSSLSASVGDRVTITCRASQDIHRYLSWFQQKPGKVPKHLIYRESRFVDGVPSRFSGSGSGTEFTLTISSLQPEDFATYYCLQYDEFPYTFGGGTKVEIK
2. Ab480/Ab1121 (HC Ab480, LC Ab1121) anti-CD47 antibody (antibody, V domains shown, FR and CDR L2 variant of AbParental; The label order is HC/LC although the head says 'LC/HC'; r442 is used) VH: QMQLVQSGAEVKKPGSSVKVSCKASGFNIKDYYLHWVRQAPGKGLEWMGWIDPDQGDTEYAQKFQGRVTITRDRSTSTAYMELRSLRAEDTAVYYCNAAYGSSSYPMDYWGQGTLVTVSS VL: NIQMTQSPSSLSASVGDRVTITCRASQDIHRYLSWFQQKPGKVPKHLIYRYIRFVDGVPSRFSGSGSGTEFTLTISSLQPEDFATYYCLQYDEFPYTFGGGTKVEIK

[A]
[0.11, 0.17]
